B1: ZNF8 (parent)
chain: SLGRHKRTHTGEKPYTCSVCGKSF

- Variants of: B1
- ASSAY_EXPLANATION: protein stability index of a GFP-peptide fusion (GPS, HEK-293T) (PSI 1-6); higher = more stable;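 further: lentivirally expressed fusions sorted by FACS into six bins by GFP to DsRed ratio, PSI derived from sequencing read proportions per bin multiplied by bin number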
- CONDITION: c terminus: a fixed tail appended
READOUT_KIND: protein stability index

Some entries whose results are on file:
1) R7K = 3
2) K22R = 3.09
3) V19P = 3.06
4) G11T = 3.09
5) H5T = 3.06
6) C20I = 2.94

Hi, could you look up protein stability index for each item in my list?
1. G3P
2. S18P
3. R7D
4. H9R
5. T16V

// result
1. 3.02
2. 3
3. 3.02
4. 2.94
5. 3.01
